system: 292921-168-R tumor spheroid viability; test: Anticancer human tumor 292921-168-R patient-derived pancreatic carcinoma cell line growth inhibition; details: curve of first compound; second compound 3.16 µM; spheroids with HUVEC and MSC
pIC50: −log10 of the molar value.
quantity: pIC50

- compound: "[2H]c1nc(C)nc([2H])c1-c1cc(NC[C@@H](C)c2cccc3c(C(=O)NC)ccnc23)ncn1 + Cn1nnc2c(C(N)=O)ncn2c1=O"
  quantity: "pIC50"
  relational operator: "<"
  recorded result: 5.00
- compound: "Cc1cc(C)c(CNC(=O)c2cc(-c3ccc(CN4CCOCC4)cc3)cc3c2cnn3C2CCCC2)c(=O)[nH]1 + Cn1nnc2c(C(N)=O)ncn2c1=O"
  quantity: "pIC50"
  relational operator: "<"
  recorded result: 5.00
- compound: "CNCc1ccc(-c2cc(-c3nc(-c4ccc(S(=O)(=O)C(C)C)cc4)cnc3N)on2)cc1 + Cn1nnc2c(C(N)=O)ncn2c1=O"
  quantity: "pIC50"
  relational operator: "="
  recorded result: 6.67
- compound: "Cc1sc2c(c1C)C(c1ccc(Cl)cc1)=NC(CC(=O)Nc1ccc(O)cc1)c1nnc(C)n1-2 (configuration not stated) + Cn1nnc2c(C(N)=O)ncn2c1=O"
  quantity: "pIC50"
  relational operator: "="
  recorded result: 5.70
- compound: "Cn1ncnc1[C@H]1c2n[nH]c(=O)c3cc(F)cc(c23)N[C@@H]1c1ccc(F)cc1 + Cn1nnc2c(C(N)=O)ncn2c1=O"
  quantity: "pIC50"
  relational operator: "="
  recorded result: 6.36
- compound: "COc1cc(C)[nH]c(=O)c1CN1CCc2c(Cl)cc(C(OC)C3COC3)c(Cl)c2C1=O (configuration not stated) + Cn1nnc2c(C(N)=O)ncn2c1=O"
  quantity: "pIC50"
  relational operator: "<"
  recorded result: 5.00
- compound: "CC1COCCN1c1cc(-c2ccnn2C)c2ccnc(-c3ccn[nH]3)c2n1 (configuration not stated) + Cn1nnc2c(C(N)=O)ncn2c1=O"
  quantity: "pIC50"
  relational operator: ">"
  recorded result: 7.50

---

test system: 292921-168-R tumor spheroid viability; test: Anticancer human tumor 292921-168-R cell line growth inhibition; conditions: second compound 31.6 µM; first compound 0.0316 µM; stronger effect = lower value; spheroids with HUVEC and MSC;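 also: spheroids exposed to compounds for 7 days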

- compound: "Cc1cc(C)c(CNC(=O)c2cc(-c3ccc(CN4CCOCC4)cc3)cc3c2cnn3C2CCCC2)c(=O)[nH]1 + Cn1nnc2c(C(N)=O)ncn2c1=O"
  assay target: "292921-168-R tumor spheroid viability"
  viability, T/C, %: 88.5
- compound: "COc1cc(C)[nH]c(=O)c1CN1CCc2c(Cl)cc(C(OC)C3COC3)c(Cl)c2C1=O (stereo unspecified) + Cn1nnc2c(C(N)=O)ncn2c1=O"
  assay target: "292921-168-R tumor spheroid viability"
  viability, T/C, %: 91.5
- compound: "CC1COCCN1c1cc(-c2ccnn2C)c2ccnc(-c3ccn[nH]3)c2n1 (stereo unspecified) + Cn1nnc2c(C(N)=O)ncn2c1=O"
  assay target: "292921-168-R tumor spheroid viability"
  viability, T/C, %: 24.3
- compound: "CC(C)n1c(=O)n(C)c2cnc3cc(F)c(-c4ccc(OCCCN5CCCCC5)nc4)cc3c21 + Cn1nnc2c(C(N)=O)ncn2c1=O"
  assay target: "292921-168-R tumor spheroid viability"
  viability, T/C, %: 89.9
- compound: "[2H]c1nc(C)nc([2H])c1-c1cc(NC[C@@H](C)c2cccc3c(C(=O)NC)ccnc23)ncn1 + Cn1nnc2c(C(N)=O)ncn2c1=O"
  assay target: "292921-168-R tumor spheroid viability"
  viability, T/C, %: 86.4
- compound: "COc1ccc([C@@H](O)c2cc(-c3ncnc4cc(N5CCOCC5)ccc34)c(F)cc2Cl)nn1 + Cn1nnc2c(C(N)=O)ncn2c1=O"
  assay target: "292921-168-R tumor spheroid viability"
  viability, T/C, %: 95.5

---

system: 292921-168-R tumor spheroid viability; experiment: Anticancer human tumor 292921-168-R cell line growth inhibition; conditions: compound alone; run of 10/17/2019; spheroids with HUVEC and MSC;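 also: spheroids exposed to compounds for 7 days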

- smiles string: "CC[C@@]1(O)C(=O)OCc2c1cc1n(c2=O)Cc2cc3c(CN(C)C)c(O)ccc3nc2-1"
  IC50: "19.4 nM [middle of 5 runs]"
- smiles string: "Cn1nnc2c(C(N)=O)ncn2c1=O"
  IC50: "> 100 µM"

---

system: 292921-168-R tumor spheroid viability; assay: Anticancer human tumor 292921-168-R cell line growth inhibition; conditions: second compound 0.03 µM; first compound 0.3 µM; stronger effect = lower value; spheroids with HUVEC and MSC;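 also: spheroids exposed to compounds for 7 days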

- molecule: "Cc1sc2c(c1C)C(c1ccc(Cl)cc1)=NC(CC(=O)Nc1ccc(O)cc1)c1nnc(C)n1-2 (centres undefined) + CC[C@@]1(O)C(=O)OCc2c1cc1n(c2=O)Cc2cc3c(CN(C)C)c(O)ccc3nc2-1"
  output unit: "%"
  viability, T/C: 25
- molecule: "O=C(c1cc(Cc2n[nH]c(=O)c3ccccc23)ccc1F)N1CCN(C(=O)C2CC2)CC1 + CC[C@@]1(O)C(=O)OCc2c1cc1n(c2=O)Cc2cc3c(CN(C)C)c(O)ccc3nc2-1"
  output unit: "%"
  viability, T/C: 22.7
- molecule: "Cn1ncnc1[C@H]1c2n[nH]c(=O)c3cc(F)cc(c23)N[C@@H]1c1ccc(F)cc1 + CC[C@@]1(O)C(=O)OCc2c1cc1n(c2=O)Cc2cc3c(CN(C)C)c(O)ccc3nc2-1"
  output unit: "%"
  viability, T/C: 16.9
- molecule: "CNCc1ccc(-c2cc(-c3nc(-c4ccc(S(=O)(=O)C(C)C)cc4)cnc3N)on2)cc1 + CC[C@@]1(O)C(=O)OCc2c1cc1n(c2=O)Cc2cc3c(CN(C)C)c(O)ccc3nc2-1"
  output unit: "%"
  viability, T/C: 14.7

---

tested on: 292921-168-R tumor spheroid viability; assay: Anticancer human tumor 292921-168-R cell line growth inhibition; conditions: second compound 0.3 µM; first compound 0.949 µM; stronger effect = lower value; spheroids with HUVEC and MSC;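 also: spheroids exposed to compounds for 7 days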

- compound: "Cn1ncnc1[C@H]1c2n[nH]c(=O)c3cc(F)cc(c23)N[C@@H]1c1ccc(F)cc1 + CC[C@@]1(O)C(=O)OCc2c1cc1n(c2=O)Cc2cc3c(CN(C)C)c(O)ccc3nc2-1"
  viability, T/C / %: 3.83
- compound: "O=C(c1cc(Cc2n[nH]c(=O)c3ccccc23)ccc1F)N1CCN(C(=O)C2CC2)CC1 + CC[C@@]1(O)C(=O)OCc2c1cc1n(c2=O)Cc2cc3c(CN(C)C)c(O)ccc3nc2-1"
  viability, T/C / %: 4.61
- compound: "CNCc1ccc(-c2cc(-c3nc(-c4ccc(S(=O)(=O)C(C)C)cc4)cnc3N)on2)cc1 + CC[C@@]1(O)C(=O)OCc2c1cc1n(c2=O)Cc2cc3c(CN(C)C)c(O)ccc3nc2-1"
  viability, T/C / %: 6.72
- compound: "Cc1sc2c(c1C)C(c1ccc(Cl)cc1)=NC(CC(=O)Nc1ccc(O)cc1)c1nnc(C)n1-2 (centres undefined) + CC[C@@]1(O)C(=O)OCc2c1cc1n(c2=O)Cc2cc3c(CN(C)C)c(O)ccc3nc2-1"
  viability, T/C / %: 0.92

---

system: 292921-168-R tumor spheroid viability; test: Anticancer human tumor 292921-168-R cell line growth inhibition; settings: second compound 0.003 µM; first compound 0.03 µM; stronger effect = lower value; spheroids with HUVEC and MSC;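 also: spheroids exposed to compounds for 7 days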
Label key: 1 means viability, T/C under 0.2%; -1 means viability, T/C of 0.2% or more.

- molecule: "CNCc1ccc(-c2cc(-c3nc(-c4ccc(S(=O)(=O)C(C)C)cc4)cnc3N)on2)cc1 + COc1cc2c(cc1O)CCNC21CSC2c3c(OC(C)=O)c(C)c4c(c3C(COC1=O)N1C(O)C3Cc5cc(C)c(OC)c(O)c5C(C21)N3C)OCO4"
  label: 1
- molecule: "Cc1sc2c(c1C)C(c1ccc(Cl)cc1)=NC(CC(=O)Nc1ccc(O)cc1)c1nnc(C)n1-2 (stereo unspecified) + CC[C@@]1(O)C(=O)OCc2c1cc1n(c2=O)Cc2cc3c(CN(C)C)c(O)ccc3nc2-1"
  label: -1
- molecule: "Cc1sc2c(c1C)C(c1ccc(Cl)cc1)=NC(CC(=O)Nc1ccc(O)cc1)c1nnc(C)n1-2 (stereo unspecified) + COc1cc2c(cc1O)CCNC21CSC2c3c(OC(C)=O)c(C)c4c(c3C(COC1=O)N1C(O)C3Cc5cc(C)c(OC)c(O)c5C(C21)N3C)OCO4"
  label: 1
- molecule: "Cn1ncnc1[C@H]1c2n[nH]c(=O)c3cc(F)cc(c23)N[C@@H]1c1ccc(F)cc1 + COc1cc2c(cc1O)CCNC21CSC2c3c(OC(C)=O)c(C)c4c(c3C(COC1=O)N1C(O)C3Cc5cc(C)c(OC)c(O)c5C(C21)N3C)OCO4"
  label: 1
- molecule: "Cn1ncnc1[C@H]1c2n[nH]c(=O)c3cc(F)cc(c23)N[C@@H]1c1ccc(F)cc1 + CC[C@@]1(O)C(=O)OCc2c1cc1n(c2=O)Cc2cc3c(CN(C)C)c(O)ccc3nc2-1"
  label: -1
- molecule: "CNCc1ccc(-c2cc(-c3nc(-c4ccc(S(=O)(=O)C(C)C)cc4)cnc3N)on2)cc1 + CC[C@@]1(O)C(=O)OCc2c1cc1n(c2=O)Cc2cc3c(CN(C)C)c(O)ccc3nc2-1"
  label: -1
